MEASURED_PROPERTY: Murine 32D Cell Proliferation Assay (relative to TMP1) (%)
Write it as a number; the unit % goes unstated.

Q. Field: Murine 32D Cell Proliferation Assay (relative to TMP1) (murine 32D cells transfected with a human mpl receptor (Homo sapiens, UniProt P40238)). Entry: QGALQEGPTLRQWLGWGQWGHS [TMP19]
A. 27

Q. // lookup Murine 32D Cell Proliferation Assay (relative to TMP1) | system=murine 32D cells transfected with a human mpl receptor (Homo sapiens, UniProt P40238) | key= SAQGIEGPTLRQWLAARALETV [TMP1, reference compound]
A. 100

Reference source: patent US7332474B2
